Entries and their AC50 values follow.
System: Clone20 osteoblast Shn3 3'UTR firefly luciferase, 24 h
experimental protocol: Shn3 3'UTR reporter inhibitors, dose response, cell-based, Clone20 osteoblasts, luminescence, dry powder, set 2 (AID 743417)
Inconclusive results are not listed. The source made the active and inactive calls.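 The calls were made as follows: active = compounds lowering the luciferase signal with a fitted half-maximal dose at most twice their top valid dose (cut at about 30 µM in these data); inconclusive = flat fits with moderate signal loss, or poor fits; inactive = the rest.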

{"compound": "COc1cc(Nc2nc(-c3ccccc3)c3cc(C)ccc3n2)cc(OC)c1OC", "AC50": "6.55 µM"}
{"compound": "COc1ccc(NC(=O)c2nc(S(=O)(=O)Cc3cccc(C)c3)ncc2Cl)c(OC)c1", "AC50": "0.299 µM"}
{"compound": "C=C(C)[C@@H]1C2=CC(C(=O)OC)=C(C[C@H](C(=C)C)[C@H]3O[C@H]3C3=C[C@H]1OC3=O)O2", "AC50": "8.16 µM"}
{"compound": "COc1ccccc1-c1cc(C(F)(F)F)nc(S(=O)(=O)CCCC(=O)N2CCOCC2)n1", "AC50": "3.02 µM"}
{"compound": "CN(C)C1=NC[C@H](Cc2ccccc2)N1CCCCc1ccccc1", "AC50": "8.01 µM"}
{"compound": "COc1ccccc1C(=O)Nc1nc(-c2ccc(S(=O)(=O)N3CCOCC3)cc2)cs1", "AC50": "1.21 µM"}
{"compound": "Cc1cc2sc3ccc(C#CC4(O)CCCCC4)cc3c(=O)c2cc1C", "AC50": "< 0.26 µM"}
{"compound": "NC(Cc1ccc(Cl)cc1)c1csc(NC(=O)NCC2CCCCC2)n1 (centres undefined)", "AC50": "6.58 µM"}
{"compound": "O=C(Nc1cccc(F)c1)c1cc(S(=O)(=O)NCCC2=CCCCC2)ccc1F", "AC50": "4.16 µM"}
{"compound": "C#CCN(C[C@@H]1[C@@H](OC(=O)NC2CCCC2)[C@@H](OC(=O)NC2CCCC2)Cn2c(=O)ccc(=O)n21)S(=O)(=O)c1ccc(C)cc1", "AC50": "12.9 µM"}
{"compound": "CCc1ccc(-n2c(O)c(C=NCCN(CC)CC)c(=O)[nH]c2=O)cc1", "AC50": "> 70 µM (inactive)"}
{"compound": "C=C1C(=O)OC2CC1C(OC(C)=O)CC(C)=CCCC(C)=CCCC2(C)O (centres undefined)", "AC50": "0.91 µM"}
{"compound": "CCOc1ccc(C(=O)C(CCC(CN(C)C)C(=O)c2ccc(OCC)cc2)CN(C)C)cc1 (centres undefined)", "AC50": "1.61 µM"}
{"compound": "Cc1cc2cc(CN(CC3CCCO3)C(=S)Nc3ccccc3)c(=O)[nH]c2cc1C (centres undefined)", "AC50": "2.91 µM"}
{"compound": "Cn1nc(-c2ccc(Cl)cc2)c2cc(C(=O)N3CCN(c4ccccn4)CC3)sc21", "AC50": "4.02 µM"}
{"compound": "Cc1ccc(OC(=O)CCC(=O)Oc2ccc(C)cc2C)c(C)c1", "AC50": "3.51 µM"}
{"compound": "Cc1nc2nc(C)n(CCN3CCOCC3)c(=O)c2c(-c2cccc([N+](=O)[O-])c2)c1C(=O)CCCCCCCCCCN1CCC(c2ccccc2)(c2ccccc2)CC1", "AC50": "7.38 µM"}
{"compound": "O=C1CC(c2ccccc2)CC(O)=C1C=Nc1cccc(Cl)c1 (centres undefined)", "AC50": "4.94 µM"}
{"compound": "O=C(CSc1nc(-c2ccco2)cc(C(F)(F)F)n1)Nc1ccc(C(=O)N2CCCCC2)cc1", "AC50": "2.87 µM"}

###

Reported AC50 values for a set of compounds
Test system: Clone20 osteoblast Shn3 3'UTR firefly luciferase, 24 h
experimental protocol: Shn3 3'UTR reporter inhibitors, dose response, cell-based, Clone20 osteoblasts, luminescence, dry powder, set 2 (AID 743417)
Records with an inconclusive call do not appear.

{"compound": "CCn1c(C)nc2cc(-c3nnc(-c4c(-c5ccccc5)noc4C)o3)ccc21", "AC50": "5.82 µM"}
{"compound": "Cc1nc2ccccn2c1C(=O)NC1CCCc2ccccc21 (stereo unspecified)", "AC50": "2.47 µM"}
{"compound": "O=C(NNC(=O)c1cccc(S(=O)(=O)N2CCc3ccccc32)c1)c1ccccc1", "AC50": "1.52 µM"}
{"compound": "CCCNC(=O)c1nnsc1S(=O)(=O)c1ccc(Cl)cc1", "AC50": "3.63 µM"}
{"compound": "Oc1cc(Nc2cccnc2)cc2cccnc12", "AC50": "2.12 µM"}
{"compound": "Cc1ccc(N/C(N)=N/c2nc(C)cc(N3CCCCC3)n2)c(C)c1", "AC50": "0.891 µM"}
{"compound": "CC(=O)OCCCNc1cc(Sc2nc3ccccc3s2)c2nonc2c1[N+](=O)[O-]", "AC50": "4.7 µM"}
{"compound": "Fc1ccc(-n2nnnc2-c2cnc(-c3cccs3)nc2C(F)(F)F)cc1", "AC50": "4.44 µM"}
{"compound": "CCOC(=O)C1CCN(C(=O)c2sc3nc(C)nc(N4CCC(C)CC4)c3c2C)CC1", "AC50": "5.26 µM"}
{"compound": "O=C(CC(O)(C(F)(F)F)C(F)(F)F)Nc1ccc(Cl)c(Cl)c1", "AC50": "4.97 µM"}
{"compound": "CCCc1nc2c(=O)n(C)c(=O)nc-2n(C)n1", "AC50": "2.17 µM"}

###

Test system: Clone20 osteoblast Shn3 3'UTR firefly luciferase, 24 h
experimental protocol: Shn3 3'UTR reporter inhibitors, dose response, cell-based, Clone20 osteoblasts, luminescence, dry powder, set 2 (AID 743417)
Records with an inconclusive call do not appear.
Quick reference: AC50 of the listed items.

{"compound": "Cc1ccc(-c2nc3ncccc3o2)cc1NC(=O)c1sc2ccccc2c1Cl", "AC50": "5.87 µM"}
{"compound": "C[C@]12CC[C@H](O)CC1=CCC1C2CC[C@@]2(C)C1CCC21OCCO1 (stereo not given in full)", "AC50": "27.3 µM"}
{"compound": "COc1cccc(CNc2nc(NCC3CC3)nc3ccsc23)c1OC", "AC50": "4.48 µM"}
{"compound": "Cc1cc(S(=O)(=O)c2ccc(Cl)cc2)nc(S(=O)(=O)c2ccc(Cl)cc2)c1C#N", "AC50": "2.83 µM"}
{"compound": "Cc1cccc(/C=C(\\c2nc3ccccc3[nH]2)S(=O)(=O)c2ccccc2)c1", "AC50": "4.5 µM"}
{"compound": "CN1/C(=C\\C=C2/SC(=S)NC2=O)C(C)(C)c2ccccc21", "AC50": "2.6 µM"}
{"compound": "CC(=O)c1cccc(-c2csc3ncnc(Sc4nnnn4C)c23)c1", "AC50": "4.72 µM"}
{"compound": "CSc1nnc(NC(=O)c2nc(S(=O)(=O)Cc3ccccc3F)ncc2Cl)s1", "AC50": "1.55 µM"}
{"compound": "Cc1cccc2sc(NNC(=O)c3ccc(S(=O)(=O)N4CC(C)CC(C)C4)cc3)nc12 (stereo not given)", "AC50": "2.57 µM"}
{"compound": "COc1ccc(-c2nc(-c3ccccn3)no2)cc1", "AC50": "1.92 µM"}

###

// AC50 lookup, one value per entry
Test system: Clone20 osteoblast Shn3 3'UTR firefly luciferase, 24 h
experimental protocol: Shn3 3'UTR reporter inhibitors, dose response, cell-based, Clone20 osteoblasts, luminescence, dry powder, set 2 (AID 743417)
Inconclusive results are not listed.
reported metric: AC50

{"compound": "CC(NC(=O)c1cc(COc2ccc3ncccc3c2)on1)c1ccc(F)cc1 (stereo not given)", "reported metric": "AC50", "result": "2.28 µM"}
{"compound": "CCN(CC)CCNc1cc(C)nc2c1C(=O)C(=O)C=C2N1CCCCC1", "reported metric": "AC50", "result": "6.61 µM"}
{"compound": "CCN(C(=O)C1CCN(c2nc(-c3ccc(OC)cc3)no2)CC1)c1ccc(OC)cc1", "reported metric": "AC50", "result": "3.17 µM"}
{"compound": "COc1ccc(CCNc2cc(N3CCN(C(=O)c4ccccc4OC)CC3)ccc2[N+](=O)[O-])cc1OC", "reported metric": "AC50", "result": "2.63 µM"}
{"compound": "CN1CCN(c2ccc(-c3ccc4ccccc4n3)cc2)CC1", "reported metric": "AC50", "result": "2.73 µM"}
{"compound": "Cc1csc(=O)n1CC(=O)OCC(=O)c1c(N)n(C)c(=O)n(C)c1=O", "reported metric": "AC50", "result": "27.1 µM"}
{"compound": "CCS(=O)(=O)c1ncc(Cl)c(C(=O)Nc2ccc(S(=O)(=O)N3CCCC(C)C3)cc2)n1 (stereo not given)", "reported metric": "AC50", "result": "< 0.26 µM"}
{"compound": "CCOC(=O)N1CCC(NC(=O)C2CCCN(Cc3nc(-c4cccc(C)c4)oc3C)C2)CC1 (stereo not given)", "reported metric": "AC50", "result": "3.06 µM"}
{"compound": "O=C(/C=C/c1cccc([N+](=O)[O-])c1)n1cnc2ccccc21", "reported metric": "AC50", "result": "0.594 µM"}
{"compound": "COc1ccc2c(c1OC)C(=O)OC2Nc1nc(-c2ccccc2)cs1 (stereo not given)", "reported metric": "AC50", "result": "4.7 µM"}
